Overview of recorded pEC50 for various binders
# target.entity: recombinant human GM-CSF protein (human, UniProt P04141 18-144)
# Sequence (P04141 18-144): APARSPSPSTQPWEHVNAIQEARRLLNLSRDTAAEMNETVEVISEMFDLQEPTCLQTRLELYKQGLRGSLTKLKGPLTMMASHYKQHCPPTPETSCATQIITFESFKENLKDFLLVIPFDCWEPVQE
# experiment: ELISA
Note: pEC50 values are expressed as the negative base-10 logarithm of concentration in M.

Would you kindly share the measured pEC50 for Hu50C5-12 (antibody, V domains shown) VH: EVQLVQSGAEVKKPGSSVKVSCKASGYIFSPYSIHWVRQAPGQGLEWIGYINPSTGYIEYNQHFKDRVTITADKSTSTAYMELRSLRSEDTAVYYCARGGDYEGYFDYWGQGTTVTVSS VL: DIQMTQSPSSLSASVGDRVTITCRLNENIYSFLAWYQQKPGKAPKLLVYNAETLAEGVPSRFSGSGSGTDFTLTISSLQPEDFATYYCQQHYGTPYTFGGGTKVEIK ? 8.49

Next:
Would you kindly share the measured pEC50 for Hu50C5-3 (antibody, V domains shown) VH: EVQLVQSGAEVKKPGSSVKVSCKASGGTFSPYSIHWVRQAPGQGLEWMGYINPSTGYIEYNQHFKDRVTITADKSTSTAYMELRSLRSEDTAVYYCARGGDYEGYFDYWGQGTTVTVSS VL: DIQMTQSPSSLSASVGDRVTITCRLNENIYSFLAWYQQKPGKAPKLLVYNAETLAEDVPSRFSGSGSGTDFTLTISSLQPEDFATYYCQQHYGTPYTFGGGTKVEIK ? 8.73

Would you kindly share the measured pEC50 for Hu50C5-9 (antibody, V domains shown) VH: EVQLVQSGAEVKKPGSSVKVSCKASGYIFSPYSIHWVRQAPGQGLEWMGYINPSTGYIEYNQHFKDRVTITADKSTSTAYMELRSLRSEDTAVYYCARGGDYEGYFDYWGQGTTVTVSS VL: DIQMTQSPSSLSASVGDRVTITCRLNENIYSFLAWYQQKPGKAPKLLVYNAETLAEDVPSRFSGSGSGTQFTLTISSLQPEDFATYYCQQHYGTPYTFGGGTKVEIK ? 9.25

Would you kindly share the measured pEC50 for Hu50C5-5 (antibody, V domains shown) VH: EVQLVQSGAEVKKPGSSVKVSCKASGGTFSPYSIHWVRQAPGQGLEWMGYINPSTGYIEYNQHFKDRVTITADKSTSTAYMELRSLRSEDTAVYYCARGGDYEGYFDYWGQGTTVTVSS VL: DIQMTQSPSSLSASVGDRVTITCRLNENIYSFLAWYQQKPGKSPKLLVYNAETLAEDVPSRFSGSGSGTQFTLTISSLQPEDFATYYCQQHYGTPYTFGGGTKVEIK ? 9.27

Would you kindly share the measured pEC50 for Hu50C5-8 (antibody, V domains shown) VH: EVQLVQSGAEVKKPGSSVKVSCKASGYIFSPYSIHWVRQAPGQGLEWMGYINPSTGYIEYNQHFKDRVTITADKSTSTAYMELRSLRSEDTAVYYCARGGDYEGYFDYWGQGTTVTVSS VL: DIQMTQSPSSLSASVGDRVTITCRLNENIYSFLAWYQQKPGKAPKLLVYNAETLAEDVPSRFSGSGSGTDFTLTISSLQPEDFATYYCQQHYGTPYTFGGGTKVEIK ? 9.36
